- Test system: CEM cells HIV-1 protection, formazan growth assay
- ASSAY REMARKS: NCI AIDS Antiviral Assay
- CONDITION NOTES: measured here: growth of uninfected CEM cells
REPORTED PROPERTY: pIC50
Answers are plain numbers, as −log10 of the molar value.

So what does the record say about pIC50 for `CN(C)/C=C(\C(=O)c1ccccc1)n1nc(-c2ccccc2)cc1-c1ccccc1` ?
4.06

Return reported pIC50; argument: `CN(C)C(=S)N/N=C(\C(=N/NC(=S)N(C)C)c1ccccn1)c1ccccn1`
5.96

Suppose we examine the compound `Cc1cc(C2(c3cc(C)c(O)c4ncccc34)OC(=O)c3ccccc32)c2cccnc2c1O` ; what pIC50 value has been reported?
6.99

Now look at this one.
Find the recorded pIC50 belonging to `COc1c(Cl)cc(C(=CCC(=O)N[C@@H]2CC[C@@]3(C)[C@@H](CC[C@@H]4[C@@H]3CC[C@]3(C)[C@@H]([C@H](C)CCCC(C)C)CC[C@@H]43)C2)c2cc(Cl)c(OC)c(C(=O)O)c2)cc1C(=O)O` and report it.
4.99
